Assay target: Protein O-GlcNAcase (Homo sapiens)
Sequence (O60502 whole entry, looked up, change not shown): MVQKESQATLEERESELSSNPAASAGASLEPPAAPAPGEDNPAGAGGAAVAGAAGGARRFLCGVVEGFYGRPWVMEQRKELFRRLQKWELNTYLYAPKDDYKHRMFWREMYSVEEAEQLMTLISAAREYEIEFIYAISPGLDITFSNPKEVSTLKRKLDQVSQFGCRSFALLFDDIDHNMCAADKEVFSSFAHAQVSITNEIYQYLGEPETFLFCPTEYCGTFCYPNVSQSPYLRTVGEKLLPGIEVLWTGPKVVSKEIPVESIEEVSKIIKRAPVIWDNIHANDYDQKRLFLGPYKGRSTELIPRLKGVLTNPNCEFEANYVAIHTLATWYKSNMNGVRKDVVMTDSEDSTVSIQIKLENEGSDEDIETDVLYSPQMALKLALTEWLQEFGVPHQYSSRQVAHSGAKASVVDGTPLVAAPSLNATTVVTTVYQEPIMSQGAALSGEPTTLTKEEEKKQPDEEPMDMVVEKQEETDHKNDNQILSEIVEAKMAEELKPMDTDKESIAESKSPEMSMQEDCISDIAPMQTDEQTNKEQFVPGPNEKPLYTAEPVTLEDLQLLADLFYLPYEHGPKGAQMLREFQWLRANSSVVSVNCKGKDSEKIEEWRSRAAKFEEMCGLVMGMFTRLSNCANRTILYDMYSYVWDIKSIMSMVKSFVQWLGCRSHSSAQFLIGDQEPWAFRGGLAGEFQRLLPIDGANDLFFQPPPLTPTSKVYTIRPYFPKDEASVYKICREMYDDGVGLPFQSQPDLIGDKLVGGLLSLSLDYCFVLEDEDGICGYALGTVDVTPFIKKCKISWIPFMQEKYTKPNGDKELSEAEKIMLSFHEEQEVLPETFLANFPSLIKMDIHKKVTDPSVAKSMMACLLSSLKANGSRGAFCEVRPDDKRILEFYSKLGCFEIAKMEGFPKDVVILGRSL
Assay method text: Inhibition of OGA in HEK293 cells induced with human Tau […] mutant assessed as increase in O-GlcNAcylated protein levels measured after 6 hrs by Hoechst 33342 dye based fluorescence analysis
Each entry below carries its recorded log10 IC50.
Test readout: log10 IC50 (log10 of the value in µM)

Molecule: CC(=O)Nc1ncc(CN2CCC3(CC(c4cc(C)nc(C)c4)CO3)C2)s1 (stereo not given)
Quantitative readout: -0.22

Molecule: CC(=O)Nc1ncc(CN2CCC3(CCN(c4cc(C)nc5ccccc45)C3)C2)s1 (single isomer, unassigned; (+))
Quantitative readout: -1.77

Molecule: CC(=O)Nc1ncc(CN2CC[C@]3(C[C@H](Oc4cc(C)nc(C)c4)CO3)C2)s1 (racemic)
Quantitative readout: -0.27

Molecule: CC(=O)Nc1ncc(CN2CCC3(CCC(COc4cc(C)nc(C)c4)C3)C2)s1 (stereo not given)
Quantitative readout: -0.30

Molecule: CC(=O)Nc1ncc(CN2CC3(CCN(c4cc(C)nc5ncnn45)C3)C2)s1
Quantitative readout: 1.00

Molecule: CC(=O)Nc1ncc(CN2CCC3(CCN(c4cc(C)nc5ncnn45)C3)C2)s1 (stereo not given)
Quantitative readout: -0.24

Molecule: CC(=O)Nc1ncc(CN2CCC3(CCN(c4cc(C)nc(C)c4)C3)C2)s1 (racemic)
Quantitative readout: -0.85

Molecule: CC(=O)Nc1ncc(CN2CCC3(CC(c4cc(C)nc(C)c4)C3)C2)s1 (racemic)
Quantitative readout: -0.74

Molecule: CC(=O)Nc1ncc(CN2CCC3(CCN(c4cc(C)cc(C)n4)C3)C2)s1 (racemic)
Quantitative readout: -1.34

Molecule: CC(=O)Nc1ncc(CN2CC[C@]3(C2)C[C@H](Cc2cc(C)nc(C)c2)C3)s1
Quantitative readout: -0.62

Molecule: CC(=O)Nc1ncc(CN2CCC3(CCN(c4cc(C)nc(C)n4)C3)C2)s1 (racemic)
Quantitative readout: -0.77
